Taken from paper PMC6832265.

Molecular target: Tdp1 (Homo sapiens)
Construct: made in house; host or cells: Escherichia coli
Sequence (Q9NUW8 whole entry): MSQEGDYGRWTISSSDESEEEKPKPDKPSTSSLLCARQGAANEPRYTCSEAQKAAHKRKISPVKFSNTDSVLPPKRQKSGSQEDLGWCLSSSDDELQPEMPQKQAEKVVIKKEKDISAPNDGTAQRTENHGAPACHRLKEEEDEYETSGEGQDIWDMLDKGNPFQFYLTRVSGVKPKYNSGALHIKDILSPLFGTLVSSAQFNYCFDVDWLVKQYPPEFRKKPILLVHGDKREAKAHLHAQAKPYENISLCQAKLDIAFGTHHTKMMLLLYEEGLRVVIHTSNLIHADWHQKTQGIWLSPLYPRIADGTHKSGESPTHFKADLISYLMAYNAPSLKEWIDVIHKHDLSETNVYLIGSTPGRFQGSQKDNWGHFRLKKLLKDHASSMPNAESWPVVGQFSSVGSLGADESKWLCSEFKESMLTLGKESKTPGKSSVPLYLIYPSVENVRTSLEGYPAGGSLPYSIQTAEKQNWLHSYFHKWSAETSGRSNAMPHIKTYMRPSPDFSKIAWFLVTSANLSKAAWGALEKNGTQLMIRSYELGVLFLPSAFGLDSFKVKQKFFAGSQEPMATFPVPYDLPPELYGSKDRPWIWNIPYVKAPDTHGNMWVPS
Assay: Real-time detection of Tdp1 activity (5'-FAM/3'-BHQ1 oligonucleotide biosensor)
Type: biochemical
Details: 1.5 nM Tdp1, 50 nM oligonucleotide substrate, 26 °C
QUANTITY MEASURED: IC50 (nM)

Here's what some known entries look like.
[
  {
    "COMPOUND": "COc1ccc(/C=N/Nc2nc(-c3c(O)c(C)c(O)c4c3OC3=CC(O)=C(C(C)=O)C(=O)[C@]34C)cs2)cc1CSc1cc(C)ccc1C(C)(C)C [(−)-17g]",
    "QUANTITY MEASURED": "IC50",
    "REPORTED MEASUREMENT": 94
  },
  {
    "COMPOUND": "CC(=O)C1=C(O)C=C2Oc3c(-c4csc(N/N=C/c5cccn5C)n4)c(O)c(C)c(O)c3[C@@]2(C)C1=O [(+)-16n]",
    "QUANTITY MEASURED": "IC50",
    "REPORTED MEASUREMENT": 151
  },
  {
    "COMPOUND": "COc1ccc(/C=N/Nc2nc(-c3c(O)c(C)c(O)c4c3OC3=CC(O)=C(C(C)=O)C(=O)[C@]34C)cs2)cc1COc1ccc(Cl)c(C)c1 [(−)-17h]",
    "QUANTITY MEASURED": "IC50",
    "REPORTED MEASUREMENT": 48
  },
  {
    "COMPOUND": "CC(=O)C1=C(O)C=C2Oc3c(-c4csc(N/N=C/c5ccncc5)n4)c(O)c(C)c(O)c3[C@]2(C)C1=O [(−)-16a]",
    "QUANTITY MEASURED": "IC50",
    "REPORTED MEASUREMENT": 139
  },
  {
    "COMPOUND": "CC(=O)C1=C(O)C=C2Oc3c(-c4csc(N/N=C/c5cccnc5)n4)c(O)c(C)c(O)c3[C@@]2(C)C1=O [(+)-16c]",
    "QUANTITY MEASURED": "IC50",
    "REPORTED MEASUREMENT": 353
  },
  {
    "COMPOUND": "CC(=O)C1=C(O)C=C2Oc3c(-c4csc(N/N=C/c5cccnc5)n4)c(O)c(C)c(O)c3[C@]2(C)C1=O [(−)-16c]",
    "QUANTITY MEASURED": "IC50",
    "REPORTED MEASUREMENT": 154
  },
  {
    "COMPOUND": "CC(=O)C1=C(O)C=C2Oc3c(-c4csc(N/N=C/c5ccc[nH]5)n4)c(O)c(C)c(O)c3[C@]2(C)C1=O [(−)-16m]",
    "QUANTITY MEASURED": "IC50",
    "REPORTED MEASUREMENT": 18
  },
  {
    "COMPOUND": "CC(=O)C1=C(O)C=C2Oc3c(-c4csc(N/N=C/c5cnc[nH]5)n4)c(O)c(C)c(O)c3[C@@]2(C)C1=O [(+)-16o]",
    "QUANTITY MEASURED": "IC50",
    "REPORTED MEASUREMENT": 1690
  }
]

[a] CC(=O)C1=C(O)C=C2Oc3c(-c4csc(N/N=C/c5ccccn5)n4)c(O)c(C)c(O)c3[C@@]2(C)C1=O [(+)-16b]
[b] CC(=O)C1=C(O)C=C2Oc3c(-c4csc(N/N=C/c5cccs5)n4)c(O)c(C)c(O)c3[C@@]2(C)C1=O [(+)-16g]
## Task Rank a against b by their IC50 values and give the higher one. # answer = label of selected item
## Result a

[I] CC(=O)C1=C(O)C=C2Oc3c(-c4csc(N/N=C/c5ccc(-c6cccc(Cl)c6)o5)n4)c(O)c(C)c(O)c3[C@]2(C)C1=O [(−)-16r]
[II] CC(=O)C1=C(O)C=C2Oc3c(-c4csc(N/N=C/c5ccccn5)n4)c(O)c(C)c(O)c3[C@]2(C)C1=O [(−)-16b]
[III] COc1ccc(/C=N/Nc2nc(-c3c(O)c(C)c(O)c4c3OC3=CC(O)=C(C(C)=O)C(=O)[C@@]34C)cs2)cc1COc1ccc(F)c(Cl)c1 [(+)-17d]
## Task Given 3 compounds, produce a descending ranking by IC50. Order the labels as requested and give them as your answer.
## Result II, III, I
